# SYSTEM UNDER TEST: Sodium-dependent dopamine transporter (Homo sapiens)
# Sequence (Q01959 whole entry): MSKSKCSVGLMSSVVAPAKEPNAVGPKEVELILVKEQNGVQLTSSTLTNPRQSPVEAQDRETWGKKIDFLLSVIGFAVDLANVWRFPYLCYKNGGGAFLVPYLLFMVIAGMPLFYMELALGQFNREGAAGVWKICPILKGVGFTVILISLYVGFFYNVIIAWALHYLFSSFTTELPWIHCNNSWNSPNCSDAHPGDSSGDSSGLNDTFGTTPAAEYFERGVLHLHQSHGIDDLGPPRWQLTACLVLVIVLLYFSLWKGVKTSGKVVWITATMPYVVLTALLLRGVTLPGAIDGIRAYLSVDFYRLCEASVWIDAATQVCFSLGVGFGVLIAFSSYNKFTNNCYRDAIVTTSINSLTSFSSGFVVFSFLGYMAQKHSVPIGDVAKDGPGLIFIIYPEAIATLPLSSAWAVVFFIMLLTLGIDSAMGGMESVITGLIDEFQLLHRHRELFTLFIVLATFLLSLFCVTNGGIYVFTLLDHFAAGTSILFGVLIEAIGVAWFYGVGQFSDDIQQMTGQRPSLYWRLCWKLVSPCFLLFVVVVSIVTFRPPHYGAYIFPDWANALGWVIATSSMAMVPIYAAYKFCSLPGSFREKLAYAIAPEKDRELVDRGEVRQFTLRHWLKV
# TEST PROTOCOL: Inhibition of dopamine uptake at human DAT in human HEK293 cells
pIC50: −log10 of the molar value.
Parameter pIC50: see the listing below.

Previously resolved entries follow.
compound=CN[C@@H]1Cc2ccccc2[C@H](Oc2ccccc2C)C1 data_value="< 5.00"
compound="COc1ccccc1O[C@H]1C[C@@H](N(C)C)c2ccccc21 (relative stereo)" data_value="< 5.00"

I'd like to know its pIC50. The compound in question is Cc1ccccc1O[C@@H]1C[C@@H](N(C)C)Cc2ccccc21 < 5.00
